system: human neutrophils; experiment: Human neutrophil oxidative activity, luminol-enhanced chemiluminescence (TNF-primed, fMLP-stimulated); format: cell-based; settings: human neutrophil experiment with Rolipram; peak chemiluminescence; read-out: Functional + Roli
Below is a list of entries, each paired with its recorded EC50 value.
Metric Name: EC50 (nM)

[[record]]
compound = "CCNC(=O)[C@H]1O[C@@H](n2cnc3c(N)nc(C#CC4(O)CCCC5CCCCC54)nc32)C(O)C1O (stereo in doubt) [Example 4]"
metric_name = "EC50"
scale_unit = "nM"
readout_number = 3.7

[[record]]
compound = "CCNC(=O)[C@H]1O[C@@H](n2cnc3c(N)nc(C#CC4(O)CC5CCC4C5)nc32)C(O)C1O (single isomer, unassigned) [Example 1]"
metric_name = "EC50"
scale_unit = "nM"
readout_number = 0.22

[[record]]
compound = "Nc1nc(C#CC2(O)C3CC4CC(C3)CC2C4)nc2c1ncn2[C@@H]1O[C@H](CO)C(O)C1O (stereo in doubt)"
metric_name = "EC50"
scale_unit = "nM"
readout_number = 0.3

[[record]]
compound = "CCNC(=O)[C@H]1O[C@@H](n2cnc3c(N)nc(C#CC4(O)CC5CCC4C5)nc32)C(O)C1O (single isomer, unassigned) [Example 2]"
metric_name = "EC50"
scale_unit = "nM"
readout_number = 0.058

[[record]]
compound = "CCNC(=O)[C@H]1O[C@@H](n2cnc3c(N)nc(C#CC4(O)CCCC5CCCCC54)nc32)C(O)C1O (stereo in doubt) [Example 5]"
metric_name = "EC50"
scale_unit = "nM"
readout_number = 0.28


###

pKi: −log10 of the molar value.
Each entry below carries its measured pKi, system: human A1 AR (Homo sapiens, UniProt P30542).
Sequence (P30542 whole entry): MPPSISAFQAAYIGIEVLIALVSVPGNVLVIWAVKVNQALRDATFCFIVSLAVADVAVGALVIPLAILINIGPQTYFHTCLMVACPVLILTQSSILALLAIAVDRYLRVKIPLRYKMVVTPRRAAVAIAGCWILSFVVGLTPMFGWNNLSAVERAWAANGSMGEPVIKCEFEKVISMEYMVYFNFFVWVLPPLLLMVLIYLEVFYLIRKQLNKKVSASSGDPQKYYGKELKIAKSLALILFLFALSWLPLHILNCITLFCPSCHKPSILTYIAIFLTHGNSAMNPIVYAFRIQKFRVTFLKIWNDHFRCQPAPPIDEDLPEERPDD
Metric Name: pKi

[[record]]
compound = "CCNC(=O)[C@H]1O[C@@H](n2cnc3c(N)nc(C#CC4(O)CC5CCC4C5)nc32)C(O)C1O (single isomer, unassigned) [Example 1]"
metric_name = "pKi"
readout_number = 7.51

[[record]]
compound = "CCNC(=O)[C@H]1O[C@@H](n2cnc3c(N)nc(C#CC4(O)CC5CCC4C5)nc32)C(O)C1O (single isomer, unassigned) [Example 2]"
metric_name = "pKi"
readout_number = 7.96


###

target: recombinant human A2A receptors (Homo sapiens); assay: Radioligand binding to recombinant human A2A receptors in Sf9 cell membranes; settings: recombinant human A2A receptor, 125I-APE or 125I-ZM241385, read-out: Binding Affinity A2A
Sequence (P29274 whole entry): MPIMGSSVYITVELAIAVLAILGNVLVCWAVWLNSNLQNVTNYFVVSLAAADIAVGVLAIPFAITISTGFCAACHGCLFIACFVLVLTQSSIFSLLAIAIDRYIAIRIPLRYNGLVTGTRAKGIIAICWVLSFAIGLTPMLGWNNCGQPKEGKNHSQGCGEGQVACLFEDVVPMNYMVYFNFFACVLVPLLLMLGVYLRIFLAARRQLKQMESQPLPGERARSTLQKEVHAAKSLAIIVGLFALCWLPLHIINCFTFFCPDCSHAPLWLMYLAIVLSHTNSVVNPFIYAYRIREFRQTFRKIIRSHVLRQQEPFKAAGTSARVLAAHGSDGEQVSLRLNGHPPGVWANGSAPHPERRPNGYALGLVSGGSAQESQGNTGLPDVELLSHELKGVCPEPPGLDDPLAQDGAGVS
Label condition met when Ki < 0.3 nM; otherwise condition not met.

[[record]]
compound = "CCNC(=O)[C@H]1O[C@@H](n2cnc3c(N)nc(C#CC4(O)CC5CCC4C5)nc32)C(O)C1O (single isomer, unassigned) [Example 1]"
discrete_label = "condition met"

[[record]]
compound = "CCNC(=O)[C@H]1O[C@@H](n2cnc3c(N)nc(C#CC4(O)C5CC6CC(C5)CC4C6)nc32)C(O)C1O (stereo in doubt)"
discrete_label = "condition met"

[[record]]
compound = "CCNC(=O)[C@H]1O[C@@H](n2cnc3c(N)nc(C#CC4(O)CCCC5CCCCC54)nc32)C(O)C1O (stereo in doubt) [Example 4]"
discrete_label = "condition not met"

[[record]]
compound = "CCNC(=O)[C@H]1O[C@@H](n2cnc3c(N)nc(C#CC4(O)CCCC5CCCCC54)nc32)C(O)C1O (stereo in doubt) [Example 5]"
discrete_label = "condition not met"

[[record]]
compound = "Nc1nc(C#CC2(O)C3CC4CC(C3)CC2C4)nc2c1ncn2[C@@H]1O[C@H](CO)C(O)C1O (stereo in doubt)"
discrete_label = "condition not met"

